All values here come from patent US11566007B2.

Reported IC50 values are given for each entry in this list.
# MEASURED ON: K-Ras G13C (Homo sapiens (Human), UniProt P01116+P62937, G13C)
# Sequence (P01116-2 other isoform, or with tags, fused parts or gaps G13C): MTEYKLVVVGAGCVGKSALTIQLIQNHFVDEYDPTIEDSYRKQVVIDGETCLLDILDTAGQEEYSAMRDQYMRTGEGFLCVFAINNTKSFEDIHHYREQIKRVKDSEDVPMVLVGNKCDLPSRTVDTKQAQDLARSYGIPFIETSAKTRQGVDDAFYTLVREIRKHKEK
# Sequence (P62937 whole entry): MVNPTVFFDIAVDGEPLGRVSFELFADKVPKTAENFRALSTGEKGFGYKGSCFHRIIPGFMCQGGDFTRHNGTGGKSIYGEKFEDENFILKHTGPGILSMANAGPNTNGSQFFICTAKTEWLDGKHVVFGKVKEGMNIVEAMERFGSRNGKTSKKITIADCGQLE
# ASSAY PROCEDURE: Ras-Raf (BRAF RBD) disruption / FRET / MOA assay, KRAS G13C
# Type: biochemical
# PROTOCOL CONDITIONS: KRAS G13C; Ras-Raf disruption/FRET/MOA assay; read-out: IC50* KRAS G13C FRET data

MOLECULE	MEASURED ON	IC50
C=CC(=O)N1CC[C@H](C(=O)N(C)[C@H](C(=O)N(C)[C@H]2Cc3cc(O)cc(c3)-c3ccc4c(c3)c(c(-c3cccnc3COC)n4CC)CC(C)(C)COC(=O)[C@@H]3CCCN(N3)C2=O)C(C)C)C1 [Example A230]	K-Ras G13C (Homo sapiens (Human), UniProt P01116+P62937, G13C)	> 10000 nM
CCn1c(-c2cccnc2[C@H](C)OC)c2c3cc(ccc31)N1CCC[C@@H](C[C@H](NC(=O)[C@@H](COC3CN(C(=O)C#CC(C)(C)N(C)C)C3)C(C)C)C(=O)N3CCC[C@H](N3)C(=O)OCC(C)(C)C2)C1 (atropisomer, axis not shown) [Example A715]	K-Ras G13C (Homo sapiens (Human), UniProt P01116+P62937, G13C)	> 10000 nM
C=CC(=O)N1CC2CCC1CN2C(=O)N(C)[C@H](C(=O)N[C@H]1Cc2nc(cs2)-c2ccc3c(c2)c(c(-c2cccnc2[C@H](C)OC)n3CC)CC(C)(C)COC(=O)[C@@H]2CCCN(N2)C1=O)C(C)C [Example A420]	K-Ras G13C (Homo sapiens (Human), UniProt P01116+P62937, G13C)	100 to 1000 nM
C=CC(=O)N(C)CCC(=O)N(C)[C@H](C(=O)N[C@H]1Cc2cc(O)cc(c2)-c2ccc3c(c2)c(c(-c2cccnc2COC)n3CC)CC(C)(C)COC(=O)[C@@H]2CCCN(N2)C1=O)C(C)C [Example A117]	K-Ras G13C (Homo sapiens (Human), UniProt P01116+P62937, G13C)	100 to 1000 nM

----------
Quick list: IC50 per entry.
# MEASURED ON: KRAS Q61H (Homo sapiens (Human), UniProt P01116+P62937, Q61H)
# Sequence (P01116-2 other isoform, or with tags, fused parts or gaps Q61H, one chain of several): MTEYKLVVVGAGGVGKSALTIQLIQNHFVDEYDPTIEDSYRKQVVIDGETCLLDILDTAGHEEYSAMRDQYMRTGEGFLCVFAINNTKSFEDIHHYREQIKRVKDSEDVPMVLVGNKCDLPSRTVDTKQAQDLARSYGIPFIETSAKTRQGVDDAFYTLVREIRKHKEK
# ASSAY PROCEDURE: Ras-Raf (BRAF RBD) disruption / FRET / MOA assay, KRAS Q61H
# Format: biochemical
# PROTOCOL CONDITIONS: Ras-Raf disruption/FRET/MOA assay; class symbols; read-out: KRAS Q61H FRET data IC50

MOLECULE	IC50
CO[C@@H](C)c1ncccc1-c1c2c3cc(ccc3n1CC(F)(F)F)-c1nc(co1)C[C@H](NC(=O)[C@@H](COC1CN(C(=O)C#CC(C)(C)N(C)C)C1)C(C)C)C(=O)N1CCC[C@H](N1)C(=O)OCC(C)(C)C2 (atropisomer, axis not shown) [Example A674]	1000 to 10000 nM
C=CS(=O)(=O)N1CC2(CCN([C@H](C(=O)N[C@H]3Cc4cc(O)cc(c4)-c4ccc5c(c4)c(c(-c4cccnc4[C@H](C)OC)n5CC)CC(C)(C)COC(=O)[C@@H]4CCCN(N4)C3=O)C(C)C)C2=O)C1 (atropisomer, axis not shown) [Example A297]	< 10 nM

----------
Reported values of IC50 for individual entries
# MEASURED ON: KRAS G12S (Homo sapiens (Human), UniProt P01116+P62937, G12S)
# Sequence (P01116-2 other isoform, or with tags, fused parts or gaps G12S, one chain of several): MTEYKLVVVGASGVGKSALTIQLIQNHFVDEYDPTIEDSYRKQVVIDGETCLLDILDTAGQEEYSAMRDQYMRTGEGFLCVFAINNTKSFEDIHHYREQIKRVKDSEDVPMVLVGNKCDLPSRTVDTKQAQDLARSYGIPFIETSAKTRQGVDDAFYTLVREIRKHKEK
# ASSAY PROCEDURE: Ras-Raf (BRAF RBD) disruption / FRET / MOA assay, KRAS G12S
# Assay type: biochemical
# PROTOCOL CONDITIONS: Ras-Raf disruption/FRET/MOA assay; class symbols; read-out: KRAS G12S FRET data IC50

COMPOUND	IC50
C=CC(=O)N1CCO[C@H]2CCN(C(=O)N(C)[C@H](C(=O)N[C@H]3Cc4nc(cs4)-c4ccc5c(c4)c(c(-c4cccnc4[C@H](C)OC)n5CC)CC(C)(C)COC(=O)[C@@H]4CCCN(N4)C3=O)C(C)C)C[C@@H]21 (atropisomer, axis not shown)	10 to 100 nM
C=CC(=O)N1CC[C@H](C(=O)N(C)[C@H](C(=O)N[C@H]2Cc3cccc(c3)-c3ccc4c(c3)c(c(-c3cccnc3[C@H](C)OC)n4CC)CC(C)(C)COC(=O)[C@@H]3CCCN(N3)C2=O)C2CCC2)C1 (atropisomer, axis not shown)	1000 to 10000 nM
CCn1c(-c2cccnc2[C@H](C)OC)c2c3cc(ccc31)N1CCC[C@@H](C[C@H](NC(=O)[C@H](C(C)C)N(C)C(=O)[C@H]3CCN(C(=O)C#CC(C)(C)N4CCC4)C3)C(=O)N3CCC[C@H](N3)C(=O)OCC(C)(C)C2)C1 (atropisomer, axis not shown)	> 10000 nM
C=CC(=O)N1CCC2(C1)CN(C(=O)N(C)[C@H](C(=O)N[C@H]1Cc3nc(cs3)-c3ccc4c(c3)c(c(-c3cccnc3[C@H](C)OC)n4CC(F)(F)F)CC(C)(C)COC(=O)[C@@H]3CCCN(N3)C1=O)C(C)C)C2	100 to 1000 nM

----------
# MEASURED ON: KRAS Q61H (Homo sapiens (Human), UniProt P01116+P62937, Q61H)
# ASSAY PROCEDURE: Ras-Raf (BRAF RBD) disruption / FRET / MOA assay, KRAS Q61H
# Type: biochemical
# PROTOCOL CONDITIONS: Ras-Raf disruption/FRET/MOA assay; class symbols; read-out: KRAS Q61H FRET data IC50
pIC50: −log10 of the molar value.
PROPERTY NAME: pIC50

MOLECULE	RESULT
C=CC(=O)N1CC[C@H](C(=O)N(C)[C@H](C(=O)N[C@H]2Cc3cccc(c3)-c3ccc4c(c3)c(c(-c3cc5c(nc3[C@H](C)OC)CCN(C)C5)n4CC)CC(C)(C)COC(=O)[C@@H]3CCCN(N3)C2=O)C(C)C)C1 (atropisomer, axis not shown) [Example A461]	5.00 to 6.00
CO[C@@H](C)c1ncccc1-c1c2c3cc(ccc3n1CC(F)(F)F)-c1nc(ns1)C[C@H](NC(=O)[C@@H](COC1CN(C(=O)C#CC(C)(C)N(C)C)C1)C(C)C)C(=O)N1CCC[C@H](N1)C(=O)OCC(C)(C)C2 (atropisomer, axis not shown) [Example A590]	5.00 to 6.00

----------
# MEASURED ON: K-Ras G13C (Homo sapiens (Human), UniProt P01116+P62937, G13C)
# ASSAY PROCEDURE: Ras-Raf (BRAF RBD) disruption / FRET / MOA assay, KRAS G13C
# Assay type: biochemical
# PROTOCOL CONDITIONS: KRAS G13C; Ras-Raf disruption/FRET/MOA assay; read-out: IC50* KRAS G13C FRET data

COMPOUND	IC50
C=CC(=O)N1CC2(CCCN2C(=O)N(C)[C@H](C(=O)N[C@H]2Cc3nc(cs3)-c3ccc4c(c3)c(c(-c3cccnc3[C@H](C)OC)n4CC)CC(C)(C)COC(=O)[C@@H]3CCCN(N3)C2=O)C(C)C)C1 (atropisomer, axis not shown) [Example A667]	0.1 to 1 µM
CCn1c(-c2cccnc2[C@H](C)OC)c2c3cc(ccc31)-c1csc(n1)C[C@H](NC(=O)C[C@H](C)OC1CN(C(=O)C#CC(C)(C)N(C)C)C1)C(=O)N1CCC[C@H](N1)C(=O)OCC(C)(C)C2 (atropisomer, axis not shown) [Example A637]	1 to 10 µM

----------
# MEASURED ON: KRAS WT (Homo sapiens (Human), UniProt P01116+P62937)
# Sequence (P01116-2 other isoform, or with tags, fused parts or gaps): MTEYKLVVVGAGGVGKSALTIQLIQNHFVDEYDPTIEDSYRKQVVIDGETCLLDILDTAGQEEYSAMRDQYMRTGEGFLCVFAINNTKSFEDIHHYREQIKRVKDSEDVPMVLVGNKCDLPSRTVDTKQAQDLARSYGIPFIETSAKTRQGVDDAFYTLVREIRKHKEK
# Sequence (P62937 whole entry): as the sequence (P62937 whole entry) above
# ASSAY PROCEDURE: Ras-Raf (BRAF RBD) disruption / FRET / MOA assay, KRAS WT
# Format: biochemical
# PROTOCOL CONDITIONS: read-out: IC50* KRAS WT FRET data

MOLECULE	IC50
CCn1c(-c2cccnc2[C@H](C)OC)c2c3cc(ccc31)-c1cccc(c1)C[C@H](NC(=O)[C@H](C(C)C)N1CC[C@@]3(CCN(C(=O)C#C[C@H]4COCCN4C4COC4)C3)C1=O)C(=O)N1CCC[C@H](N1)C(=O)OCC(C)(C)C2 (atropisomer, axis not shown)	1000 to 10000 nM
CCn1c(-c2cccnc2[C@H](C)OC)c2c3cc(ccc31)-c1csc(n1)C[C@H](NC(=O)[C@H](C(C)C)N(C)C(=O)N(C)C1CN(C(=O)/C=C/CN(C)C)C1)C(=O)N1CCC[C@H](N1)C(=O)OCC(C)(C)C2 (atropisomer, axis not shown)	100 to 1000 nM
C=CC(=O)N1CCC(C(=O)N(C)[C@H](C(=O)N[C@H]2CCC(=O)N(C)Cc3ccc4c(c3)c(c(-c3cccnc3[C@H](C)OC)n4CC)CC(C)(C)COC(=O)[C@@H]3CCCN(N3)C2=O)C(C)C)C1 (atropisomer, axis not shown)	> 10000 nM
C=CC(=O)N1CCC(F)(C(=O)N(C)[C@H](C(=O)N[C@H]2Cc3nc(cs3)-c3ccc4c(c3)c(c(-c3cccnc3[C@H](C)OC)n4CC)CC(C)(C)COC(=O)[C@@H]3CCCN(N3)C2=O)C(C)C)CC1 (atropisomer, axis not shown)	100 to 1000 nM
CCn1c(-c2cccnc2[C@H](C)OC)c2c3cc(ccc31)-c1cccc(c1)C[C@H](NC(=O)[C@@H](COC1CN(C(=O)C#C[C@@H]3OCCCN3C)C1)C(C)C)C(=O)N1CCC[C@H](N1)C(=O)OCC(C)(C)C2 (atropisomer, axis not shown)	1000 to 10000 nM
CCn1c(-c2cccnc2COC)c2c3cc(ccc31)-c1cc(O)cc(c1)C[C@H](NC(=O)[C@@H](C(C)C)N(C)C(=O)[C@H]1CCN(C(=O)C#CCN3CCOCC3)C1)C(=O)N1CCC[C@H](N1)C(=O)OCC(C)(C)C2	> 10000 nM
C=CC(=O)N1C[C@@H](C)[C@H](C(=O)N(C)[C@H](C(=O)N[C@H]2Cc3cccc(c3)-c3ccc4c(c3)c(c(-c3cccnc3[C@H](C)OC)n4CC)CC(C)(C)COC(=O)[C@@H]3CCCN(N3)C2=O)C(C)C)C1 (atropisomer, axis not shown)	1000 to 10000 nM
C=CC(=O)N1CCN(C(=O)N(C)[C@H](C(=O)N[C@H]2Cc3cc(O)cc(c3)-c3ccc4c(c3)c(c(-c3ccccc3CCOC)n4CC)CC(C)(C)COC(=O)[C@@H]3CCCN(N3)C2=O)C(C)C)C[C@H]1COC	1000 to 10000 nM
C=CC(=O)N1CC[C@@]2(C1)OCN([C@H](C(=O)N[C@H]1Cc3cccc(c3)-c3ccc4c(c3)c(c(-c3cccnc3[C@H](C)OC)n4CC)CC(C)(C)COC(=O)[C@@H]3CCCN(N3)C1=O)C(C)C)C2=O (atropisomer, axis not shown)	100 to 1000 nM
C=CC(=O)N1CC[C@H](C(=O)N(C)[C@H](C(=O)N[C@H]2Cc3cc(O)cc(c3)-c3ccc4c(c3)c(c(-c3cc(CN(C)C)nn3C)n4CC)CC(C)(C)COC(=O)[C@@H]3CCCN(N3)C2=O)C(C)C)C1	> 10000 nM
CCn1c(-c2cccnc2[C@H](C)OC)c2c3cc(ccc31)-c1cc(O)cc(c1)C[C@H](NC(=O)[C@H](C(C)C)N1CC[C@@]3(CCN(C(=O)/C=C/CN(C)C)C3)C1=O)C(=O)N1CCC[C@H](N1)C(=O)OCC(C)(C)C2 (atropisomer, axis not shown)	100 to 1000 nM
C=CC(=O)N1CCC2(CC1)CCN(C(=O)N(C)[C@H](C(=O)N[C@H]1Cc3nc(cs3)-c3ccc4c(c3)c(c(-c3cccnc3[C@H](C)OC)n4CC)CC(C)(C)COC(=O)[C@@H]3CCCN(N3)C1=O)C(C)C)CC2 (atropisomer, axis not shown)	100 to 1000 nM
CCn1c(-c2cccnc2[C@H](C)OC)c2c3cc(ccc31)-c1cccc(c1)C[C@H](NC(=O)[C@@H](COC1CN(C(=O)C#CC(C)(C)N(C)C(C)C)C1)C(C)C)C(=O)N1CCC[C@H](N1)C(=O)OCC(C)(C)C2 (atropisomer, axis not shown)	> 10000 nM
C=CC(=O)N1CC(OC(=O)N(C)[C@H](C(=O)N[C@H]2Cc3cccc(c3)-c3ccc4c(c3)c(c(-c3cccnc3[C@H](C)OC)n4CC)CC(C)(C)COC(=O)[C@@H]3CCCN(N3)C2=O)C(C)C)C1 (atropisomer, axis not shown)	1000 to 10000 nM
C=CC(=O)N1CC[C@H](C(=O)N(C)[C@H](C(=O)N[C@H]2Cc3nc(cs3)-c3ccc4c(n3)c(c(-c3cccnc3[C@H](C)OC)n4CC)CC(C)(C)COC(=O)[C@@H]3CCCN(N3)C2=O)C(C)C)C1	1000 to 10000 nM
